- Method description: Plasma concentration in Sprague-Dawley rat at 30 mg/kg, ip after 120 mins
- Type: ADME, organism-based
Observable: concentration at 2 h (µg/mL)

smiles_string=O/N=c1\cc(-c2cc3cccn3cn2)oc2ccc(OCCN3CCOCC3)cc12 result=0.535

###

- Method description: Cmax in Sprague-Dawley rat at 1 mg/kg, iv administered as single dose by LC-MS/MS analysis
- Format: ADME, organism-based
- Parameters: dose 1 mg/kg, route intravenous
- Measurement context: in vivo
Observable: Cmax (ng/mL)

smiles_string=O/N=c1\cc(-c2cc3cccn3cn2)oc2ccc(OCCN3CCOCC3)cc12 observable=Cmax result=444
smiles_string=O/N=c1\cc(-c2cc3sccc3cn2)oc2ccc(CCCN3CCOCC3)cc12 observable=Cmax result=325

###

- Method description: Tmax in Sprague-Dawley rat plasma at 10 mg/kg, ip administered as single dose by LC-MS/MS analysis
- Assay type: ADME, organism-based
Observable: Tmax (min)

smiles_string=O/N=c1\cc(-c2cc3cccn3cn2)oc2ccc(OCCN3CCOCC3)cc12 observable=Tmax unit=min result=15

###

- Method description: Plasma concentration in Sprague-Dawley rat at 30 mg/kg, ip after 60 mins
- Assay type: ADME, organism-based
Observable: concentration at 1 h (ng/mL)

smiles_string=O/N=c1\cc(-c2cc3cccn3cn2)oc2ccc(OCCN3CCOCC3)cc12 observable="concentration at 1 h" result=3560

###

- Assay system: Metabotropic glutamate receptor 4 (Homo sapiens)
- Method description: Positive allosteric modulation of recombinant human mGlu4 receptor expressed in HEK293 cells co-expressing Gi/Gq assessed as increase in glutamate-induced calcium flux preincubated for 10 mins followed by glutamate addition measured for 3 mins by Fluo4-AM dye based fluorescence assay
- Type: functional, cell-based
- Measurement context: read-out: EC50
pEC50: −log10 of the molar value.
Use fulfilled when the recorded pEC50 is no lower than 6; use not fulfilled when it is lower.

smiles_string=CN1CCN(CCOc2ccc3oc(-c4cc5cccn5cn4)c/c(=N\O)c3c2)CC1 assigned_label="not fulfilled"
smiles_string=CN1CCN(CCOc2ccc3oc(-c4cc5ccccc5cn4)c/c(=N\O)c3c2)CC1 assigned_label="not fulfilled"
smiles_string=O/N=c1\cc(-c2cc3ccccc3cn2)oc2ccccc12 assigned_label=fulfilled
smiles_string=O/N=c1\cc(-c2cnc3ccccc3c2)oc2ccccc12 assigned_label="not fulfilled"
smiles_string=O/N=c1\cc(-c2cc3ccccc3cn2)oc2ccc(OC(F)(F)F)cc12 assigned_label="not fulfilled"
smiles_string=O/N=c1\cc(-c2cc3ccccc3cn2)oc2ccc(C(F)(F)F)cc12 assigned_label="not fulfilled"
smiles_string=O/N=c1\cc(-c2cc3cc[nH]c3cn2)oc2ccccc12 assigned_label=fulfilled
smiles_string=O/N=c1\cc(-c2cc3sccc3cn2)oc2ccc(OCCN3CCC(F)(F)CC3)cc12 assigned_label=fulfilled
smiles_string=O/N=c1\cc(-c2cc3sccc3cn2)oc2ccc(OC3CN(c4cccnc4)C3)cc12 assigned_label=fulfilled

###

- Method description: Half life in Sprague-Dawley rat plasma at 10 mg/kg, ip administered as single dose by LC-MS/MS analysis
- Type: ADME, organism-based
Observable: half-life (h)

smiles_string=O/N=c1\cc(-c2cc3cccn3cn2)oc2ccc(OCCN3CCOCC3)cc12 result=4

###

- Method description: Ratio of drug level in Sprague-Dawley rat brain to plasma at 10 mg/kg, po after 30 mins post dose administered as single dose by LC-MS/MS analysis
- Format: ADME, organism-based
- Measurement context: read-out: BPR
Observable: Kp at 0.5 h

smiles_string=O/N=c1\cc(-c2cc3cccn3cn2)oc2ccc(OCCN3CCOCC3)cc12 result=2.3

###

- Method description: Cmax in C57BL/6 mouse plasma at 10 mg/kg, po administered as single dose by LC-MS/MS analysis
- Assay type: ADME, organism-based
- Parameters: dose 10 mg/kg, route oral
Observable: Cmax

smiles_string=O/N=c1\cc(-c2cc3cccn3cn2)oc2ccc(OCCN3CCOCC3)cc12 result="0.229 µg/mL"

###

- Method description: Drug uptake in Sprague-Dawley rat brain at 10 mg/kg, po after 90 mins post dose administered as single dose by LC-MS/MS analysis
- Type: ADME, organism-based
- Measurement context: read-out: Drug uptake
The label is criterion met for concentration at 1.5 h below 200 ng/g and criterion not met for concentration at 1.5 h equal to or exceeding 200 ng/g.

smiles_string=O/N=c1\cc(-c2cc3sccc3cn2)oc2ccc(CCCN3CCC(F)(F)CC3)cc12 assigned_label="criterion met"
smiles_string=O/N=c1\cc(-c2cc3sccc3cn2)oc2ccc(CCCN3CCOCC3)cc12 assigned_label="criterion not met"
smiles_string=O/N=c1\cc(-c2cc3sccc3cn2)oc2ccc(CCCN3CCC(F)(F)C3)cc12 assigned_label="criterion met"
smiles_string=O/N=c1\cc(-c2cc3sccc3cn2)oc2ccc(OCCN3CCOCC3)cc12 assigned_label="criterion not met"

###

- Method description: Cmax in C57BL/6 mouse at 2 mg/kg, iv administered as single dose by LC-MS/MS analysis
- Type: ADME, organism-based
- Design: dose 2 mg/kg, route intravenous
- Measurement context: in vivo
Observable: Cmax (ng/mL)

smiles_string=O/N=c1\cc(-c2cc3cccn3cn2)oc2ccc(OCCN3CCOCC3)cc12 result=753

###

- Method description: Ratio of AUC (0 to infinity) in Sprague-Dawley rat brain to plasma at 10 mg/kg, po administered as single dose by LC-MS/MS analysis
- Type: ADME, organism-based
- Measurement context: read-out: Ratio AUC
Observable: Kp

smiles_string=O/N=c1\cc(-c2cc3sccc3cn2)oc2ccc(CCCN3CCOCC3)cc12 result=6.6

###

- Method description: Cmax in Sprague-Dawley rat plasma at 10 mg/kg, ip administered as single dose by LC-MS/MS analysis
- Assay type: ADME, organism-based
- Parameters: dose 10 mg/kg, route intraperitoneal
Observable: Cmax (ng/mL)

smiles_string=O/N=c1\cc(-c2cc3cccn3cn2)oc2ccc(OCCN3CCOCC3)cc12 unit=ng/mL result=1500

###

# pEC50 listing for each entry below
- Assay system: Metabotropic glutamate receptor 4 (Homo sapiens, UniProt Q14833)
- Sequence (Q14833 whole entry): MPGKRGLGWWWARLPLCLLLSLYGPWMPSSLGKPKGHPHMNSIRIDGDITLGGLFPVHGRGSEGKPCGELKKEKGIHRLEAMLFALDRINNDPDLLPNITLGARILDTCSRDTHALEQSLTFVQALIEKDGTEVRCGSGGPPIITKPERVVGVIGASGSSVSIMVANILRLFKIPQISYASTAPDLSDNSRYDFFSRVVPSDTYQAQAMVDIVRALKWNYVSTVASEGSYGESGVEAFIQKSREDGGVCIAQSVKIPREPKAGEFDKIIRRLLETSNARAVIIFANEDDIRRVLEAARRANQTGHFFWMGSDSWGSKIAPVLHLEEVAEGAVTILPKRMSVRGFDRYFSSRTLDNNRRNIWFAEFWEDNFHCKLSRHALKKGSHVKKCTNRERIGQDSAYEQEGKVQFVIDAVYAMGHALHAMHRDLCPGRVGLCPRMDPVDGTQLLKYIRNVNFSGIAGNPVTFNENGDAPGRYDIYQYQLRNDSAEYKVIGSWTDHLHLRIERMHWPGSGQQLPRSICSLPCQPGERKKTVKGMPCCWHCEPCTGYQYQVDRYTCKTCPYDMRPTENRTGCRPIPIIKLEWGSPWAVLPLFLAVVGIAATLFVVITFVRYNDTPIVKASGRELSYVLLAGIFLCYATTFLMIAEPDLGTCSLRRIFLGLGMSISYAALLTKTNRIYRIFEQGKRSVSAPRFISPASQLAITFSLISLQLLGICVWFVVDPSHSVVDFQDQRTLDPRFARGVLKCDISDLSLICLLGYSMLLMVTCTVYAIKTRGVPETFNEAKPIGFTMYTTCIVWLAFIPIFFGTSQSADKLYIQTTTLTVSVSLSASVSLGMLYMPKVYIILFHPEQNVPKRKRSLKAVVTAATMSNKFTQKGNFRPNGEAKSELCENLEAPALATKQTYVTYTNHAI
- Method description: Positive allosteric modulation of recombinant human mGlu4 receptor expressed in HEK293 cells co-expressing Gi/Gq assessed as increase in glutamate-induced calcium flux preincubated for 10 mins followed by glutamate addition measured for 3 mins by Fluo4-AM dye based fluorescence assay
- Format: functional, cell-based
- Measurement context: read-out: EC50
pEC50: −log10 of the molar value.
Observable: pEC50

smiles_string=O/N=c1\cc(-c2cc3sccc3cn2)oc2ccc(CCCN3CCC(F)(F)C3)cc12 qualifier_sign== result=7.60
smiles_string=Cc1ncccc1N1CCC(Cc2ccc3oc(-c4cc5sccc5cn4)c/c(=N\O)c3c2)CC1 qualifier_sign== result=8.40
smiles_string=O/N=c1\cc(-c2cc3sccc3cn2)oc2ccc(O[C@@H]3CCN(c4ccncn4)C3)cc12 qualifier_sign== result=7.77
smiles_string=O/N=c1\cc(-c2cc3cccn3cn2)oc2ccc(OCCN3CCOCC3)cc12 qualifier_sign== result=7.34
smiles_string=O/N=c1\cc(-c2cc3ccccc3cn2)oc2cc(CCc3ccccc3)ccc12 qualifier_sign== result=5.76
smiles_string=O/N=c1\cc(-c2cc3cccn3cn2)oc2ccccc12 qualifier_sign== result=6.96
smiles_string=Cc1ccc2oc(-c3cc4ccccc4cn3)c/c(=N\O)c2c1 qualifier_sign== result=6.01
smiles_string=CC(=O)N1CCC(Oc2ccc3oc(-c4cc5cccn5cn4)c/c(=N\O)c3c2)CC1 qualifier_sign== result=8.00
smiles_string=O/N=c1\cc(-c2cc3sccc3cn2)oc2ccc(OCCN3CCOCC3)cc12 qualifier_sign== result=7.46
smiles_string=CN(C)C1CCN(CCOc2ccc3oc(-c4cc5cccn5cn4)c/c(=N\O)c3c2)CC1 qualifier_sign== result=6.78
smiles_string=O/N=c1\cc(-c2cc3cccn3cn2)oc2ccc(OCCCc3cccnc3)cc12 qualifier_sign== result=7.30
smiles_string=O/N=c1\cc(-c2cc3sccc3cn2)oc2ccccc12 qualifier_sign== result=6.70
smiles_string=O/N=c1\cc(-c2cc3ccsc3cn2)oc2ccccc12 qualifier_sign== result=6.89
smiles_string=COCCOc1ccc2oc(-c3cc4ccccc4cn3)c/c(=N\O)c2c1 qualifier_sign== result=6.12
smiles_string=COc1ccc2/c(=N/O)cc(-c3cc4ccccc4cn3)oc2c1 qualifier_sign== result=5.94
smiles_string=CN1CCCC12CCN(CCOc1ccc3oc(-c4cc5sccc5cn4)c/c(=N\O)c3c1)CC2 qualifier_sign== result=7.22
smiles_string=O/N=c1\cc(-c2cc3cnccc3cn2)oc2ccccc12 qualifier_sign== result=5.90
smiles_string=O/N=c1\cc(-c2cc3sccc3cn2)oc2ccc(NC3CCN(c4ccncn4)CC3)cc12 qualifier_sign== result=7.28
smiles_string=O/N=c1\cc(-c2ccc3ncccc3c2)oc2ccccc12 qualifier_sign== result=5.16
smiles_string=O/N=c1\cc(-c2cc3ccccc3cn2)oc2cc(Br)ccc12 qualifier_sign== result=5.76
smiles_string=O/N=c1\cc(-c2cc3ccccc3[nH]2)oc2ccccc12 qualifier_sign=< result=4.52
smiles_string=O/N=c1\cc(-c2cc3ccccc3o2)oc2ccccc12 qualifier_sign=< result=4.52

src = ChEMBL document CHEMBL4017520
